- assayed target: human calcium-sensing receptor (CaSR) (Homo sapiens)
- Construct: expressed in transfected cells; host or cells: HEK 293T cells, transiently transfected (lipofectamine 2000); in some cases HEK293 cells stably transfected
- Sequence (P41180 20-1078): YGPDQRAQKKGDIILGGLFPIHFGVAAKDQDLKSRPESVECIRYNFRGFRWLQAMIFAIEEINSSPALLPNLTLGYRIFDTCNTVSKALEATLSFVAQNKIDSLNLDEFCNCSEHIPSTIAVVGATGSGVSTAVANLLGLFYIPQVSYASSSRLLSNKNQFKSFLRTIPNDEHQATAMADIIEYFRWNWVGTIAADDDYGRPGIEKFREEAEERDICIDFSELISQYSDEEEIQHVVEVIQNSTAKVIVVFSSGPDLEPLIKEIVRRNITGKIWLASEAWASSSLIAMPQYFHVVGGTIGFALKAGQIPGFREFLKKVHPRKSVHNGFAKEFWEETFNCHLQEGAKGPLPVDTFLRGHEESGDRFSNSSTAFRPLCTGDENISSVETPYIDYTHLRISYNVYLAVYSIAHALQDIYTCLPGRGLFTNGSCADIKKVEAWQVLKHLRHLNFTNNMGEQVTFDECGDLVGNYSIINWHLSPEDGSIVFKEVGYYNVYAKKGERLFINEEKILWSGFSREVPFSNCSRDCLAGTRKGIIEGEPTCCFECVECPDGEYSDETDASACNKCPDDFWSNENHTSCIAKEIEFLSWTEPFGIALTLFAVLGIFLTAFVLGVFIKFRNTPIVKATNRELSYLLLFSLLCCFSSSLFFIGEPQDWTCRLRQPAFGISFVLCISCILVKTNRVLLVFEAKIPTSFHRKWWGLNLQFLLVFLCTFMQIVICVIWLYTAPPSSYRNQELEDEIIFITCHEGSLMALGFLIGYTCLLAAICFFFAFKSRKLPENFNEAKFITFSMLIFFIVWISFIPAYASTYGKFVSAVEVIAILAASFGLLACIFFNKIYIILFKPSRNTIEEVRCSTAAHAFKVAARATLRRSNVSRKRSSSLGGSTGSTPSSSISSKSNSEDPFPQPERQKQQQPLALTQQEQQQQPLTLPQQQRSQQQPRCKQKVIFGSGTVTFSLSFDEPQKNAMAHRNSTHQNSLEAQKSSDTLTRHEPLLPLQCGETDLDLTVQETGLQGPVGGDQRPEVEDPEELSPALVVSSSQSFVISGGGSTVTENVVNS
- measurement description: In vitro cell assay in HEK-293 expressing the human calcium-sensing receptor (IP1 production)
- Assay type: cell-based
- condition description: Table 5; IP1 production in HEK293 cells expressing human CaSR, eight concentrations in duplicate; read-out: EC50 in CaSR in vitro assay
reported property: EC50 (nM)

* Ac-c(PEG2-C)rrrrrr-NH2 (XXXXXXX; D-residues) [SEQ ID NO: 59] | 20
* Ac-c(PEG2-C)arrrar-NH2 (XXXXXXX; D-residues) [SEQ ID NO: 57] | 2300

* * *

- assayed target: human calcium-sensing receptor (CaSR) (Homo sapiens)
- Construct: expressed in transfected cells; host or cells: HEK 293T cells, transiently transfected (lipofectamine 2000); in some cases HEK293 cells stably transfected
- measurement description: In vitro cell assay in HEK-293 expressing the human calcium-sensing receptor (IP1 production)
- Assay type: cell-based
- condition description: Table 5; IP1 production in HEK293 cells expressing human CaSR, eight concentrations in duplicate; read-out: EC50 in CaSR in vitro assay
pEC50: −log10 of the molar value. Square brackets hold non-standard residues; d marks the D form. Peptide text beside a SMILES is read from it. βAla = NCCC(=O)O
We begin with a simple list: items and their reported pEC50.
reported property: pEC50

- CC(=O)N[C@H](CS)C(=O)N[C@H](CCCNC(=N)N)C(=O)N[C@H](CCCNC(=N)N)C(=O)N[C@H](CCCNC(=N)N)C(=O)N[C@H](C)C(=O)N[C@H](CCCNC(=N)N)C(=O)N[C@H](CCCNC(=N)N)C(N)=O [SEQ ID NO: 11, Ac-crrrarr-NH2] (Ac-[dC][dR][dR][dR][dA][dR][dR]-NH2): 5.23
- CC(=O)N[C@H](CS)C(=O)N[C@H](C)C(=O)N[C@H](CCCCN)C(=O)N[C@H](CCCNC(=N)N)C(=O)N[C@H](CCCNC(=N)N)C(=O)N[C@H](C)C(=O)N[C@H](CCCNC(=N)N)C(N)=O [SEQ ID NO: 72, Ac-cakrrar-NH2] (Ac-[dC][dA][dK][dR][dR][dA][dR]-NH2): 4.46
- N=C(N)NCCC[C@@H](NC(=O)[C@@H](CCCNC(=N)N)NC(=O)[C@@H](CCCNC(=N)N)NC(=O)[C@@H](CCCNC(=N)N)NC(=O)[C@@H](CCCNC(=N)N)NC(=O)[C@@H](CCCNC(=N)N)NC(=O)[C@H](N)CS)C(N)=O [SEQ ID NO: 80, crrrrrr-NH2]: 5.96
- CC(=O)N[C@H](CS)C(=O)N[C@H](C)C(=O)N[C@H](CCCNC(=N)N)C(=O)N[C@H](CCCNC(=N)N)C(=O)N[C@H](CCCNC(=N)N)C(=O)N[C@H](CCCNC(=N)N)C(=O)N[C@H](CCCNC(=N)N)C(N)=O [SEQ ID NO: 8, Ac-carrrrr-NH2] (Ac-[dC][dA][dR][dR][dR][dR][dR]-NH2): 5.96
- CC(=O)NCCC(=O)N[C@H](CS)C(=O)N[C@H](CCCNC(=N)N)C(=O)N[C@H](CCCNC(=N)N)C(=O)N[C@H](CCCNC(=N)N)C(=O)N[C@H](CCCNC(=N)N)C(=O)N[C@H](CCCNC(=N)N)C(=O)N[C@H](CCCNC(=N)N)C(N)=O [SEQ ID NO: 30, Ac-bAla-crrrrrr-NH2] (Ac-[βAla][dC][dR][dR][dR][dR][dR][dR]-NH2): 6.00
- CC(=O)N[C@H](CS)C(=O)N[C@H](CCCNC(=N)N)C(=O)N[C@H](CCCNC(=N)N)C(=O)N[C@H](CCCNC(=N)N)C(=O)N[C@H](CCCNC(=N)N)C(=O)N[C@H](C)C(=O)N[C@H](CCCNC(=N)N)C(N)=O [SEQ ID NO: 12, Ac-crrrrar-NH2] (Ac-[dC][dR][dR][dR][dR][dA][dR]-NH2): 6.35
- CC(=O)N[C@H](CS)C(=O)N[C@H](CCCNC(=N)N)C(=O)N[C@H](C)C(=O)N[C@H](CCCNC(=N)N)C(=O)N[C@H](CCCNC(=N)N)C(=O)N[C@H](CCCNC(=N)N)C(=O)N[C@H](CCCNC(=N)N)C(N)=O [SEQ ID NO: 9, Ac-crarrrr-NH2] (Ac-[dC][dR][dA][dR][dR][dR][dR]-NH2): 6.00
